Tested on: FLT3
Settings: concentration: 1 μM, replicates: in singlicate; n = 1;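 also: KINOMEscan kinase panel screen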
Please respond with reported %Inh for every item in the list.
Answers are plain numbers, in %.

Study these solved cases before continuing.
[
  {
    "compound": "COc1cccc(-c2cc(-c3c[nH]nc3-c3ccccn3)ccn2)c1",
    "unit.of.measurement": "%",
    "%Inh": 0
  },
  {
    "compound": "COc1cc2ncn(-c3cc(OCC4CCCO4)c(C(N)=O)s3)c2cc1OC (centres unmarked)",
    "unit.of.measurement": "%",
    "%Inh": 0
  },
  {
    "compound": "CC(C)(C)c1ccc(C(=O)Nc2cn3cc(Cl)ccc3n2)cc1",
    "unit.of.measurement": "%",
    "%Inh": 70
  },
  {
    "compound": "NC(=O)c1nnc2ccccc2c1N",
    "unit.of.measurement": "%",
    "%Inh": 15
  },
  {
    "compound": "O=C(Nc1n[nH]c2cc(-c3cccc(F)c3F)ccc12)C1CC1",
    "unit.of.measurement": "%",
    "%Inh": 0
  },
  {
    "compound": "COC(=O)c1c(-c2ccccc2)c2cc(OC)ccc2c(=O)n1Cc1ccccc1",
    "unit.of.measurement": "%",
    "%Inh": 8
  },
  {
    "compound": "Cn1ccc2ncnc(Oc3ccc(NC(=O)Nc4ccccc4)cc3)c21",
    "unit.of.measurement": "%",
    "%Inh": 97.4
  },
  {
    "compound": "O=C(Nc1ccccc1)Nc1cccc(Oc2ccc3nccn3n2)c1",
    "unit.of.measurement": "%",
    "%Inh": 4
  },
  {
    "compound": "COc1cc2nccc(Nc3ccc(NC(=O)c4ccc(C)cc4)c(O)c3)c2cc1OC.Cl",
    "unit.of.measurement": "%",
    "%Inh": 0
  },
  {
    "compound": "Cn1cncc1-c1ccc2ncnc(Nc3ccc(OCc4ccccc4)cc3)c2c1",
    "unit.of.measurement": "%",
    "%Inh": 62
  }
]

In the following, a different compound is considered.
Entry COc1ccc2nc(-c3cccc(C)n3)nc(Nc3ccncc3)c2c1 ; %Inh = 0

====

Please respond with reported %Inh for every item in the list.
Test system: FGFR1
Conditions: concentration: 1 μM, replicates: in singlicate; n = 1
Numbers only, in %.

Study these solved cases before continuing.
[
  {
    "compound": "Cc1ccc(NC(=O)Nc2cc(C(C)(C)C)nn2-c2ccccc2)cc1",
    "target.under.test": "FGFR1",
    "unit.of.measurement": "%",
    "numeric.result": 6
  },
  {
    "compound": "COC(=O)c1c(-c2ccccc2)c2cc(C(=O)O)ccc2c(=O)n1Cc1ccccc1",
    "target.under.test": "FGFR1",
    "unit.of.measurement": "%",
    "numeric.result": 0
  },
  {
    "compound": "COc1cccc(-c2cc(-c3c[nH]nc3-c3ccccn3)ccn2)c1",
    "target.under.test": "FGFR1",
    "unit.of.measurement": "%",
    "numeric.result": 0
  },
  {
    "compound": "Cn1ccc2ncnc(Oc3ccc(Nc4nc5ccccc5[nH]4)cc3)c21",
    "target.under.test": "FGFR1",
    "unit.of.measurement": "%",
    "numeric.result": 3
  }
]

Below is a list of compounds. For each, state its recorded %Inh.
1. CC(C)(C)c1ccc(C(=O)Nc2cn3cc(Cl)ccc3n2)cc1
2. Fc1cc(Cl)ccc1Nc1ccnc2cc(-c3ccc(CN4CCCCC4)o3)ccc12
3. Cc1nnc(-c2ccc3occ(-c4ccc(S(C)=O)cc4)c3c2)[nH]1 (centres unmarked)
4. Cc1cc(NCC(c2ccccc2)c2ccccc2)nc(NCc2ccc(C(F)(F)F)cc2)n1
5. Cn1cncc1-c1ccc2ncnc(Nc3ccc(OCc4ccccc4)cc3)c2c1
6. Cc1cc(N2Cc3ccccc3C2)nc(Nc2ccc(S(=O)(=O)N3CCOCC3)cc2)n1.Cl
7. Cc1cccc(-c2nc(-c3ccc(S(C)(=O)=O)cc3)sc2-c2ccnc(NCCc3ccccc3)c2)c1
8. CCCc1ccc(S(=O)(=O)NC2CCN(c3ccnc(Nc4ccc(F)cc4)n3)C2)cc1 (centres unmarked)

-- reply
12
0
0
0
2
0
5
0

====

Test system: OSR1
Construct: gene OXSR1
Details: concentration: 1 μM, replicates: in singlicate; n = 1
measurement.label: %Inh (%)
Numbers only, in %.

Study these solved cases before continuing.
[
  {
    "molecule": "COc1cc2ncn(-c3cc(OCC4CCCO4)c(C(N)=O)s3)c2cc1OC (stereo not drawn)",
    "numeric.result": 0
  },
  {
    "molecule": "COc1ccc(Nc2nccc(NCCNC(=O)Nc3ccccc3F)n2)cc1",
    "numeric.result": 8
  },
  {
    "molecule": "O=S(=O)(c1ccc(-c2ccnc3[nH]ccc23)cc1)N1CCCC1",
    "numeric.result": 4
  },
  {
    "molecule": "Cc1ccc(NC(=O)Nc2cccc(Cl)c2)cc1-c1ccc(C(=O)Nc2ccncc2)cc1",
    "numeric.result": 12
  },
  {
    "molecule": "Cc1c(O)cccc1Nc1ccnc2ccc(C(F)(F)F)cc12.Cl",
    "numeric.result": 0
  },
  {
    "molecule": "CS(=O)(=O)c1ccc(-c2nc3n(c2-c2ccncc2)CCC3)cc1",
    "numeric.result": 0
  },
  {
    "molecule": "COc1ccc(CNC(=O)NC2CCN(c3ccnc(Nc4cc(OC)c(OC)c(OC)c4)n3)C2)cc1 (stereo not drawn)",
    "numeric.result": 0
  },
  {
    "molecule": "CC(C)(C)c1ccc(C(=O)Nc2cn3cc(Cl)ccc3n2)cc1",
    "numeric.result": 0
  },
  {
    "molecule": "Cc1c(Cn2ccn3c(=O)cc(N4CCOCC4)nc23)cccc1C(F)(F)F",
    "numeric.result": 8
  },
  {
    "molecule": "Cn1ccc2ncnc(Oc3cccc(C(=O)Nc4ccccc4)c3)c21",
    "numeric.result": 0
  }
]

Below is a list of molecules. For each, state its recorded %Inh.
1. Cc1ccccc1-n1cnc2c(N)ncnc21
2. Fc1cc(Cl)ccc1Nc1ccnc2cc(I)ccc12
3. O=C(Nc1n[nH]c2nc(-c3nccs3)c(Br)cc12)C1CC1
4. O=C(O)COc1ncnc2cc(-c3ccc4[nH]ncc4c3)sc12
5. Clc1cc(Cl)cc(Nc2ccnc(Nc3cc(Cl)cc(Cl)c3)n2)c1
6. Cn1cncc1-c1ccc2ncnc(Nc3ccc(OCc4ccccc4)cc3)c2c1
7. O=C(Nc1n[nH]c2cc(-c3cccc(F)c3F)ccc12)C1CC1
8. C[C@@H]1CCCCN1c1cc(-c2ccc3c(N)n[nH]c3c2)nc(N)n1

-- reply
1. 0
2. 6
3. 7
4. 34
5. 0
6. 19
7. 0
8. 0

====

Test system: VEGFR2
Construct: gene KDR
Details: concentration: 1 μM, replicates: in singlicate; n = 1
Kind request: treat 2% as inclusive, so %Inh at 2% or higher is TRUE, anything lower is FALSE.

Example results:
[
  {
    "entry.smiles": "Fc1cc(Cl)ccc1Nc1ccnc2cc(-c3ccc(CN4CCCCC4)o3)ccc12",
    "category": "TRUE"
  },
  {
    "entry.smiles": "Cn1ccc2ncnc(Oc3ccc(NC(=O)Nc4ccccc4)cc3)c21",
    "category": "TRUE"
  },
  {
    "entry.smiles": "COC(=O)c1c(-c2ccccc2)c2cc(OC)ccc2c(=O)n1Cc1ccccc1",
    "category": "TRUE"
  }
]

Continue with the compound presented below.
-- ask Confirm if %Inh reported for the compound Cc1ccc(C(=O)Nc2ccc(Nc3ccnc4cc(-c5ccccn5)ccc34)cc2O)cc1.Cl is 2% or above.
-- reply TRUE

====

Tested on: GCN2(Kin.Dom.2,S808G)
Construct: gene EIF2AK4
Conditions: concentration: 1 μM, replicates: in singlicate; n = 1
measurement.label: %Inh (%)
Give bare numbers, in %.

[
  {
    "compound": "Cc1ccc(NC(=O)Nc2cccc(Cl)c2)cc1-c1ccc(C(=O)Nc2ccncc2)cc1",
    "target.under.test": "GCN2(Kin.Dom.2,S808G)",
    "unit.of.measurement": "%",
    "%Inh": 0
  },
  {
    "compound": "C[C@@H]1CCCCN1c1cc(-c2ccc3c(N)n[nH]c3c2)nc(N)n1",
    "target.under.test": "GCN2(Kin.Dom.2,S808G)",
    "unit.of.measurement": "%",
    "%Inh": 0
  },
  {
    "compound": "Cc1cccc(-c2nc(Nc3ccc4[nH]ncc4c3)c3ccccc3n2)n1",
    "target.under.test": "GCN2(Kin.Dom.2,S808G)",
    "unit.of.measurement": "%",
    "%Inh": 5
  },
  {
    "compound": "COc1cccc(-c2cc(-c3c[nH]nc3-c3ccccn3)ccn2)c1",
    "target.under.test": "GCN2(Kin.Dom.2,S808G)",
    "unit.of.measurement": "%",
    "%Inh": 7
  }
]

Below is a list of compounds. For each, state its recorded %Inh.
1. COc1ccc2nc(-c3cccc(C)n3)nc(Nc3ccncc3)c2c1
2. O=C(Nc1ccc2c(c1)OCO2)NC1CCN(c2ccnc(Nc3ccc(F)cc3)n2)C1 (centres unmarked)
3. Cc1cccc(-c2nc(Nc3ccncc3)c3ccccc3n2)n1
4. Cc1ccccc1-n1cnc2c(N)ncnc21
5. COc1ccc(C2=C(Nc3cccc(C(=O)O)c3)C(=O)NC2=O)cc1
6. COc1cc2ncnc(Nc3ccc4nc(-c5ccccc5)[nH]c4c3)c2cc1OC.Cl
7. CC1=C(C(=O)Nc2cc3cn[nH]c3cc2F)C(c2ccc(C(F)(F)F)cc2)CC(=O)N1 (centres unmarked)

-- reply
0
6
0
0
0
0
14

Below is a list of compounds. For each, state its recorded %Inh.
1. Cc1cc(NCC(c2ccccc2)c2ccccc2)nc(NCc2ccc(C(F)(F)F)cc2)n1
2. Clc1cc(Cl)cc(Nc2ccnc(Nc3cc(Cl)cc(Cl)c3)n2)c1
3. Cc1cccc(-c2nc(Nc3cccc(C(N)=O)c3)c3ccccc3n2)n1
4. Cc1ccc(NC(=O)Nc2cc(C(C)(C)C)nn2-c2ccccc2)cc1
5. O=C(Nc1n[nH]c2nc(-c3nccs3)c(Br)cc12)C1CC1
6. Cc1c(Cn2ccn3c(=O)cc(N4CCOCC4)nc23)cccc1C(F)(F)F

-- reply
1. 0
2. 0
3. 0
4. 9
5. 0
6. 0
